tested on: MV-4-11; assay: Oncology cell growth assay MV-4-11 (CellTiter Glo, 72 hours); format: cell-based; details: Homo sapiens, MV4-11, 72 h; MV-4-11 cell growth inhibitory activity, 3d
# IC50 per record follows

Cc1noc(C)c1-c1cnc2ccn(S(=O)(=O)c3cnn(C(F)F)c3)c2c1 | 1 to 10 µM

Exercise: Give IC50 for this entry on MV-4-11: CCc1[nH]c2ncc(-c3c(C)noc3C)cc2c1Cc1ccccc1Cl
Key: 1 to 10 µM

Exercise: Give IC50 for this entry on MV-4-11: Cc1noc(C)c1-c1cnc2c(-c3cnn(C4CCCCO4)c3)cn(S(=O)(=O)c3ccccc3)c2c1 (stereo not drawn)
Key: ≤ 1 µM

Exercise: Give IC50 for this entry on MV-4-11: Cc1noc(C)c1-c1cnc2c(c1)c(C=C1CCS(=O)(=O)CC1)cn2S(=O)(=O)c1ccccc1
Key: 1 to 10 µM

* * *

# IC50 per record follows
test system: MV-4-11; experiment: Oncology cell growth assay MV-4-11 (CellTiter Glo, 72 hours); format: cell-based; settings: Homo sapiens, MV4-11, 72 h; MV-4-11 cell growth inhibitory activity, 3d

Study these solved cases before continuing.
[2H]C([2H])(O)C(c1ccccc1)n1cc(-c2cnn(C)c2)c2ncc(-c3c(C)noc3C)cc21 (centres unmarked) | ≤ 1 µM
C=CCn1cc(-c2cn(S(=O)(=O)C3CCCC3)c3cc(-c4c(C)noc4C)cnc23)cn1 | ≤ 1 µM
[2H]C([2H])([2H])n1cc(CC2CCN(C(=O)OCc3ccccc3)CC2)c2cc(-c3c(C)noc3C)cnc21 | 1 to 10 µM

Exercise: Kindly indicate its recorded IC50. Item: Cc1noc(C)c1-c1cnc2[nH]cc(C(O)c3cccc4c3OC(F)(F)O4)c2c1 (centres unmarked)
Key: 1 to 10 µM

Exercise: Kindly indicate its recorded IC50. Item: Cc1noc(C)c1-c1cnc2c(CC3CC3)cn(S(=O)(=O)C3CCCCC3)c2c1
Key: 1 to 10 µM

Exercise: Kindly indicate its recorded IC50. Item: Cc1noc(C)c1-c1cnc2ccn(S(=O)(=O)c3cccs3)c2c1
Key: 1 to 10 µM

Exercise: Kindly indicate its recorded IC50. Item: Cc1noc(C)c1-c1cnc2c(-c3cnn(CC(F)(F)F)c3)cn(S(=O)(=O)c3ccccc3)c2c1
Key: ≤ 1 µM

Exercise: Kindly indicate its recorded IC50. Item: Cc1noc(C)c1-c1cnc2c(c1)c(CC1CCN(C(=O)c3ccccc3)CC1)cn2C
Key: ≤ 1 µM

Exercise: Kindly indicate its recorded IC50. Item: Cc1noc(C)c1-c1cnc2c(-c3cnn(C4CCOC4)c3)cn(S(=O)(=O)c3ccccc3)c2c1 (centres unmarked)
Key: ≤ 1 µM

Exercise: Kindly indicate its recorded IC50. Item: Cc1noc(C)c1-c1cnc2c(-c3cnc(C4CC4)nc3)cn(S(=O)(=O)c3ccccc3)c2c1
Key: 1 to 10 µM

Exercise: Kindly indicate its recorded IC50. Item: Cc1noc(C)c1-c1cnc2c(c1)c(CC1CC3CCC1C3)cn2C (centres unmarked)
Key: 1 to 10 µM

Exercise: Kindly indicate its recorded IC50. Item: CCCS(=O)(=O)n1cc(-c2cnn(C)c2)c2ncc(-c3c(C)noc3C)cc21
Key: ≤ 1 µM

Exercise: Kindly indicate its recorded IC50. Item: CCCS(=O)(=O)n1cc(-c2cnn(CC(F)(F)F)c2)c2ncc(-c3c(C)noc3C)cc21
Key: ≤ 1 µM
